- Method Notes: self-splicing fitness, log relative to wild type (ln ratio); higher = more splicing; Tetrahymena group I intron in knt gene, E. coli kanamycin selection, DiMSum; sequences stand for … in CUCUCU…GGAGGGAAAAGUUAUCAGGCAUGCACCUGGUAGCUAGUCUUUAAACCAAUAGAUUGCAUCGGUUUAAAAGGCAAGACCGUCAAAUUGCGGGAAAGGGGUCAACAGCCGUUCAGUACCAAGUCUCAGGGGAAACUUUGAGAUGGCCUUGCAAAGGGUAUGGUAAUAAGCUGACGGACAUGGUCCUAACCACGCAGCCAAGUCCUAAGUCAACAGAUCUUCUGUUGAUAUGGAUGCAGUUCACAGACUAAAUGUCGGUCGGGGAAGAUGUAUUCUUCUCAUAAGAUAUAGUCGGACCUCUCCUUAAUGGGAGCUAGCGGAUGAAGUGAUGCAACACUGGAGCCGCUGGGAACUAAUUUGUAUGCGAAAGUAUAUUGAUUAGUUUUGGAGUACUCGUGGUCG;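 further: selection with 25 µg/mL kanamycin versus none on LB agar overnight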
- Experimental Context: 37 °C
# self-splicing fitness (ln) binned as low group = under -2, middle group = from -2 up to -0.8, high group = -0.8 and over

{"Sequence Input": "GGAAAGCAAUAUUACGAGCC", "Qualitative Label": "middle group"}
{"Sequence Input": "AACGAGCAAUAUUACGUCGU", "Qualitative Label": "low group"}
{"Sequence Input": "UUACAGCAAUAUUACGAGUC", "Qualitative Label": "low group"}
{"Sequence Input": "AAACAGCAAUAUUACGUUGA", "Qualitative Label": "middle group"}
{"Sequence Input": "GUCAAGCAAUAUUACGGAAU", "Qualitative Label": "middle group"}
{"Sequence Input": "CUCUAGCAAUAUUACGAAGU", "Qualitative Label": "low group"}
{"Sequence Input": "GUAAAGCAAUAUUACGUUGC", "Qualitative Label": "low group"}
{"Sequence Input": "GAGCAGCAAUAUUACGGAGG", "Qualitative Label": "low group"}
{"Sequence Input": "GGUAAGCAAUAUUACGUUUG", "Qualitative Label": "low group"}
{"Sequence Input": "UUACAGCAAUAUUACGCUAA", "Qualitative Label": "middle group"}
{"Sequence Input": "UUCAAGCAAUAUUACGUAGU", "Qualitative Label": "middle group"}
{"Sequence Input": "GCUCAGCAAUAUUACGAUGC", "Qualitative Label": "middle group"}
{"Sequence Input": "CGGCAGCAAUAUUACGCUGA", "Qualitative Label": "low group"}
{"Sequence Input": "GGCCAGCAAUAUUACGCCUC", "Qualitative Label": "high group"}
{"Sequence Input": "UAACAGCAAUAUUACGUGAU", "Qualitative Label": "middle group"}
{"Sequence Input": "GUCCAGCAAUAUUACGAUCU", "Qualitative Label": "high group"}
{"Sequence Input": "GCGCAGCAAUAUUACGCGAC", "Qualitative Label": "middle group"}
{"Sequence Input": "CGGUAGCAAUAUUACGAUGG", "Qualitative Label": "high group"}
{"Sequence Input": "UGGCAGCAAUAUUACGAAUA", "Qualitative Label": "high group"}
{"Sequence Input": "UCCCAGCAAUAUUACGUUCG", "Qualitative Label": "low group"}
{"Sequence Input": "CACCAGCAAUAUUACGUCGG", "Qualitative Label": "high group"}
{"Sequence Input": "CAAGAGCAAUAUUACGUUCU", "Qualitative Label": "low group"}
{"Sequence Input": "UUAUAGCAAUAUUACGGCGG", "Qualitative Label": "high group"}
{"Sequence Input": "ACUGAGCAAUAUUACGGACG", "Qualitative Label": "middle group"}
{"Sequence Input": "ACUAAGCAAUAUUACGUACU", "Qualitative Label": "high group"}
{"Sequence Input": "AGUAAGCAAUAUUACGGACG", "Qualitative Label": "high group"}
{"Sequence Input": "UGGCAGCAAUAUUACGAGCC", "Qualitative Label": "low group"}
{"Sequence Input": "GCCUAGCAAUAUUACGUUAG", "Qualitative Label": "low group"}
{"Sequence Input": "CUACAGCAAUAUUACGCUGU", "Qualitative Label": "low group"}
{"Sequence Input": "UAAUAGCAAUAUUACGACGA", "Qualitative Label": "middle group"}
{"Sequence Input": "AUGCAGCAAUAUUACGUCAG", "Qualitative Label": "middle group"}
{"Sequence Input": "GGCCAGCAAUAUUACGAGAA", "Qualitative Label": "low group"}
{"Sequence Input": "GGAGAGCAAUAUUACGUUGU", "Qualitative Label": "low group"}
{"Sequence Input": "UUUUAGCAAUAUUACGGCUA", "Qualitative Label": "high group"}
{"Sequence Input": "AAUCAGCAAUAUUACGCCCA", "Qualitative Label": "high group"}
{"Sequence Input": "UGUUAGCAAUAUUACGUCGC", "Qualitative Label": "low group"}
{"Sequence Input": "UAGAAGCAAUAUUACGGGUA", "Qualitative Label": "high group"}
{"Sequence Input": "UGGAAGCAAUAUUACGGCCG", "Qualitative Label": "high group"}
{"Sequence Input": "UGCCAGCAAUAUUACGCGCG", "Qualitative Label": "high group"}
{"Sequence Input": "UCCAAGCAAUAUUACGCCUG", "Qualitative Label": "low group"}
{"Sequence Input": "CCUGAGCAAUAUUACGAGGA", "Qualitative Label": "middle group"}
{"Sequence Input": "UUUGAGCAAUAUUACGGCUA", "Qualitative Label": "middle group"}
{"Sequence Input": "AGAAAGCAAUAUUACGUGUG", "Qualitative Label": "middle group"}
{"Sequence Input": "AAUCAGCAAUAUUACGUGCC", "Qualitative Label": "high group"}
{"Sequence Input": "CUCUAGCAAUAUUACGUCAA", "Qualitative Label": "low group"}
{"Sequence Input": "GAAAAGCAAUAUUACGUCUG", "Qualitative Label": "high group"}
{"Sequence Input": "CCCUAGCAAUAUUACGCUUC", "Qualitative Label": "low group"}
{"Sequence Input": "CUGUAGCAAUAUUACGAGAA", "Qualitative Label": "low group"}
{"Sequence Input": "ACCCAGCAAUAUUACGUGCA", "Qualitative Label": "high group"}
{"Sequence Input": "AGGCAGCAAUAUUACGAAAG", "Qualitative Label": "low group"}
{"Sequence Input": "UCAAAGCAAUAUUACGGUCG", "Qualitative Label": "high group"}
{"Sequence Input": "UCGCAGCAAUAUUACGCGCU", "Qualitative Label": "middle group"}
{"Sequence Input": "UGUCAGCAAUAUUACGGGUA", "Qualitative Label": "high group"}
{"Sequence Input": "ACCCAGCAAUAUUACGAAUA", "Qualitative Label": "middle group"}
{"Sequence Input": "AGACAGCAAUAUUACGCCAU", "Qualitative Label": "middle group"}
{"Sequence Input": "UGCCAGCAAUAUUACGUUAC", "Qualitative Label": "low group"}
{"Sequence Input": "CGGGAGCAAUAUUACGAAUC", "Qualitative Label": "high group"}
{"Sequence Input": "GUGGAGCAAUAUUACGAGGA", "Qualitative Label": "middle group"}
{"Sequence Input": "AGAUAGCAAUAUUACGCGCC", "Qualitative Label": "high group"}
{"Sequence Input": "AGUUAGCAAUAUUACGUGGG", "Qualitative Label": "low group"}
{"Sequence Input": "GCUAAGCAAUAUUACGAUAC", "Qualitative Label": "high group"}
{"Sequence Input": "CGAUAGCAAUAUUACGCCCA", "Qualitative Label": "high group"}
{"Sequence Input": "AAUCAGCAAUAUUACGAGAU", "Qualitative Label": "high group"}
{"Sequence Input": "GCGAAGCAAUAUUACGAGGC", "Qualitative Label": "middle group"}
